experiment: Aqueous solubility of the active ingredient; assay type: physicochemical; conditions: water, read-out: minimum aqueous solubility
Quantity Measured: solubility (µg/mL)
Lab book: enter the figure in µg/mL, no units written.

Look up solubility of CCNC(=O)CCC/C=C\C[C@@H]1[C@@H](/C=C/[C@H](CCc2ccccc2)OC(=O)CCCCCO[N+](=O)[O-])[C@H](O)C[C@@H]1O [NCX 470] and report it.
20

Numbers sourced from patent US12178793B2.
